# credit: patent US11753408B2

Test: PAMPA permeability
Format: in vitro ADME
Details: PAMPA
So I've got a bunch of molecules here, and I need their PAMPA Permeability (×10^6 cm/s) values.

Field: PAMPA Permeability (×10^6 cm/s). Fill in for each record below.
1. Nc1ccc(-c2ccc3ncc4ccc(=O)n(-c5ccc6c(c5)C(=O)NC6)c4c3c2)cn1 [Compound 387]
2. CS(=O)(=O)c1ccc(-n2c(=O)ccc3cnc4ccc(-c5ccc(C6(N)CC6)cc5)cc4c32)cc1 [Compound 36]
3. O=C1NC(=O)c2cc(-n3c(=O)ccc4cnc5ccc(-c6ccc(Cl)cc6)cc5c43)ccc21 [Compound 379]
4. CCN(CC)Cc1ccc(-c2ccc3ncc4ccc(=O)n(-c5ccc6c(c5)CNC6=O)c4c3c2)cc1 [Compound 363]

Result:
1: <4.1 ×10^6 cm/s; 2: 6.5 ×10^6 cm/s; 3: 31 ×10^6 cm/s; 4: 8.76 ×10^6 cm/s

* * *

Target: mTOR (Homo sapiens)
Assay: mTOR activity (no method described)
Type: biochemical
// label = Criterion met if mTOR is not less than 20 µM, otherwise Criterion not met

CN1CCN(C(=O)c2ccc(-n3c(=O)ccc4cnc5ccc(-c6ccc(Cl)cc6)cc5c43)cc2)CC1 : Criterion not met
O=C(c1ccc(-n2c(=O)ccc3cnc4ccc(-c5ccc(Cl)cc5)cc4c32)cc1)N1C2CCC1CC(O)C2 (stereo not shown) : Criterion not met
Cn1c(=O)n(-c2cccc(C#N)c2)c2c3cc(-c4ccc(C#N)cc4)ccc3ncc21 : Criterion met
Cc1cc(C(=O)NC2CCN(CCN(C)C)CC2)ccc1-n1c(=O)ccc2cnc3ccc(-c4ccc(Cl)cc4)cc3c21 : Criterion not met
COc1cc(C(=O)NCCCN2CCCCC2)ccc1-n1c(=O)ccc2cnc3ccc(-c4ccc(Cl)cc4)cc3c21 : Criterion not met

Task: Determine whether measured mTOR meets or exceeds 20 µM for "COc1cc(C(=O)N2CCOCC2)ccc1-n1c(=O)ccc2cnc3ccc(-c4ccc(Cl)cc4)cc3c21"
Result: Criterion not met

* * *

Assay: Microsomal stability (rat)
Assay type: in vitro ADME
Conditions: rat microsomes
Give measured Microsomal Stability (rat) T1/2 for each item. Keep answers brief.
Give bare numbers, in min.

Example molecules with recorded Microsomal Stability (rat) T1/2:
CN1CCN(CCCNC(=O)c2ccc(-n3c(=O)ccc4cnc5ccc(-c6ccc(Cl)cc6)cc5c43)cc2)CC1 [Compound 262] : 4.3
O=C1NCc2cc(-n3c(=O)ccc4cnc5ccc(-c6ccc(F)cc6)cc5c43)ccc21 [Compound 362] : 7.4
CN1CC2CN(C(=O)c3ccc(-n4c(=O)ccc5cnc6ccc(-c7ccc(Cl)cc7)cc6c54)cc3)CC2C1 (stereo not drawn) [Compound 141] : 4.2

Consider the following items and state reported Microsomal Stability (rat) T1/2 for each.
1. Nc1cc(-c2ccc3ncc4ccc(=O)n(-c5ccc(C(=O)N6CCOCC6)cc5)c4c3c2)ccc1Cl [Compound 113]
2. Cc1cc(C(=O)N2CCOCC2)ccc1-n1c(=O)ccc2cnc3ccc(-c4ccc(Cl)cc4)cc3c21 [Compound 110]

Result:
[13.6, 2.2]

Would you mind listing Microsomal Stability (rat) T1/2 for each of the following molecules?
1. COc1cc(-c2ccc3ncc4ccc(=O)n(-c5ccc(C(=O)N6CCOCC6)cc5)c4c3c2)ccc1Cl [Compound 145]
2. CN(C)S(=O)(=O)c1ccc(-n2c(=O)ccc3cnc4ccc(-c5ccc(Cl)cc5)cc4c32)cc1 [Compound 42]
3. CCNC(=O)c1cc(-c2ccc3ncc4ccc(=O)n(-c5ccc(C(=O)N6CCOCC6)cc5)c4c3c2)ccc1Cl [Compound 150]

Result:
1: 4.9; 2: 4.9; 3: 2.4

* * *

Target: mTOR (Homo sapiens, UniProt P42345)
Test: mTOR activity (no method described)
Assay type: biochemical
valueType: mTOR (µM)
Numbers only, in µM.

# example entries with known answers
NC(=O)c1cc(-c2ccc3ncc4ccc(=O)n(-c5ccc(C(=O)N6CCOCC6)cc5)c4c3c2)ccc1Cl : 6.235
O=C(c1ccc(-n2c(=O)ccc3cnc4ccc(-c5ccc(Cl)cc5)cc4c32)cc1)N1CCN(CCO)CC1 : 3.26
O=C(NCCCN1CCCC1)c1ccc(-n2c(=O)ccc3cnc4ccc(-c5ccc(F)cc5)cc4c32)cc1 : 3.878

Then this compound:
Task: Answer with the recorded mTOR for the compound listed here: "CN(C)Cc1cccc(-c2ccc3ncc4ccc(=O)n(-c5ccc(C(=O)N6CCOCC6)cc5)c4c3c2)c1"
Result: 100

* * *

Kindly supply the reported Sol @ pH 7.4 values for the records listed here.
Test: Solubility at pH 7.4
Format: physicochemical
One number for each entry, in ug/mL.

Use these answered entries as a reference point.
O=C1Cc2cc(-c3ccc4ncc5ccc(=O)n(-c6ccc(C(=O)N7CCOCC7)cc6)c5c4c3)ccc2N1 [Compound 127] : 7.3
O=C(NC1CNC1)c1ccc(-n2c(=O)ccc3cnc4ccc(-c5ccc(Cl)cc5)cc4c32)cc1 [Compound 232] : 9.2
O=C(c1ccc(-n2c(=O)ccc3cnc4ccc(-c5ccc(Cl)cc5)cc4c32)cc1)N1CCN(CCO)CC1 [Compound 109] : 4.2
CCN(CC)CCNC(=O)c1ccc(-n2c(=O)ccc3cnc4ccc(-c5ccc(Cl)cc5)cc4c32)cc1 [Compound 284] : 36.6
CNC(=O)c1ccc(-n2c(=O)ccc3cnc4ccc(-c5ccc(Cl)cc5)cc4c32)c(C)c1 [Compound 112] : 5

List the reported Sol @ pH 7.4 of each compound below.
1. O=C(c1ccc(-n2c(=O)ccc3cnc4ccc(-c5ccc(CN6CCCC6)cc5)cc4c32)cc1)N1CCOCC1 [Compound 184]
2. CCN(CC)Cc1ccc(-c2ccc3ncc4ccc(=O)n(-c5ccc(C(=O)N6CCOCC6)cc5)c4c3c2)cc1 [Compound 175]
3. CN(C)CCOc1ccc(-c2ccc3ncc4ccc(=O)n(-c5ccc(C(=O)N6CCOCC6)cc5)c4c3c2)cc1 [Compound 202]
4. O=C(NCCCN1CCCC1)c1ccc(-n2c(=O)ccc3cnc4ccc(-c5ccc(Cl)cc5)cc4c32)cc1 [Compound 206]

Result:
1: 56.1; 2: 66.62; 3: 57.8; 4: 44.1

Task: For the compound O=C(NC1CCNC1)c1ccc(-n2c(=O)ccc3cnc4ccc(-c5ccc(Cl)cc5)cc4c32)cc1 (stereo not drawn) [Compound 96] , report Sol @ pH 7.4.
Result: 11.4

* * *

Assay: Microsomal stability (rat)
Format: in vitro ADME
Details: rat microsomes
valueType: Microsomal Stability (rat) T1/2 (min)
Numbers only, in min.

COc1cc(C(=O)NC2CC2)ccc1-n1c(=O)ccc2cnc3ccc(-c4ccc(F)c(O)c4)cc3c21 : 21.9
O=C(NCCCN1CCCCC1)c1ccc(-n2c(=O)ccc3cnc4ccc(-c5ccc(Cl)cc5)cc4c32)cc1 : 2.1
Cc1cc(C(=O)NCCCN2CCS(=O)(=O)CC2)ccc1-n1c(=O)ccc2cnc3ccc(-c4ccc(Cl)cc4)cc3c21 : 1.7
O=C(c1ccc(-n2c(=O)ccc3cnc4ccc(-c5ccc(Cl)c(C(=O)N6CCOCC6)c5)cc4c32)cc1)N1CCOCC1 : 3.1

// batch mode: one Microsomal Stability (rat) T1/2 value per listed entry
1. O=C(c1ccc(-n2c(=O)ccc3cnc4ccc(-c5ccc(Cl)cc5)cc4c32)cc1)N1CCOCC1
2. CCN(CC)CCNC(=O)c1ccc(-n2c(=O)ccc3cnc4ccc(-c5ccc(Cl)cc5)cc4c32)cc1
3. Cc1cc(C(=O)NCCCN2CCCCC2)ccc1-n1c(=O)ccc2cnc3ccc(-c4ccc(Cl)cc4)cc3c21
4. O=C(c1ccc(-n2c(=O)ccc3cnc4ccc(-c5ccc(Cl)c(O)c5)cc4c32)cc1)N1CCOCC1

Result:
1. 9
2. 7.5
3. 2.6
4. 23.3

Batch request: Microsomal Stability (rat) T1/2 for each of the following compounds.
1. O=c1ccc2cnc3ccc(-c4ccc(Cl)cc4)cc3c2n1-c1ccc(S(=O)(=O)N2CCOCC2)cc1
2. O=C(c1ccc(-n2c(=O)ccc3cnc4ccc(-c5ccc(Cl)cc5)cc4c32)cc1C(F)(F)F)N1CCOCC1
3. O=c1ccc2cnc3ccc(-c4ccc(Cl)cc4)cc3c2n1-c1ccc(S(=O)(=O)NC2CC2)cc1
4. CN1CC2CC1CN2C(=O)c1ccc(-n2c(=O)ccc3cnc4ccc(-c5ccc(Cl)cc5)cc4c32)cc1 (centres unmarked)

Result:
[12.7, 1.7, 8.3, 9.6]

# batch size: 6; output Microsomal Stability (rat) T1/2 per entry
1. COc1cc(-c2ccc3ncc4ccc(=O)n(-c5ccc(C(=O)NC6CC6)cc5)c4c3c2)ccc1Cl
2. N#Cc1ccc(-n2c(=O)[nH]c3cnc4ccc(-c5ccc(Cl)cc5)cc4c32)cc1
3. CCN(CC)CCNC(=O)c1ccc(-n2c(=O)ccc3cnc4ccc(-c5ccc(Cl)cc5)cc4c32)c(C)c1
4. Cc1cc(N2CCNCC2)c(C#N)cc1-n1c(=O)ccc2cnc3ccc(-c4ccc(Cl)cc4)cc3c21 [Compound 4]
5. Cc1cc(-c2ccc3ncc4ccc(=O)n(-c5ccc(C(=O)N6CCOCC6)cc5)c4c3c2)ccc1Cl
6. Cc1cc(C(=O)NCCN(C)C)ccc1-n1c(=O)ccc2cnc3ccc(-c4ccc(Cl)cc4)cc3c21

Result:
22.2
11.3
5.8
9.6
4.1
21.4
